read-out: TIMP metallopeptidase inhibitor 1 (TIMP1), TIMP1 (gene 7076); experiment: BSK_hDFCGF_TIMP1: BioMAP Diversity Plus: hDFCGF Assay for TIMP metallopeptidase inhibitor 1 (TIMP1) Biomarker Activity (AID 2283062); details: primary human foreskin fibroblasts; actives raise or lower the signal
Activity calls are given as the source filed them. How the source made its calls: active means hit-call score of the fitted dose curve at least 0.9, where 1 is the maximum; inactive means score below 0.9.

[
  {
    "molecule": "CCCC(C)C(=O)OCC (centres undefined)",
    "AC50": "inactive"
  },
  {
    "molecule": "CCCCCCCCC(CO)CCCCCC (centres undefined)",
    "AC50": "inactive"
  },
  {
    "molecule": "C=CC(=O)OCCCCCCCC(C)C",
    "AC50": "inactive"
  },
  {
    "molecule": "CCCCCCCO",
    "AC50": "inactive"
  },
  {
    "molecule": "CCCCC1C(=O)N(c2ccccc2)N(c2ccccc2)C1=O",
    "AC50": "inactive"
  },
  {
    "molecule": "CC/C=C\\CCOC(=O)c1ccccc1O",
    "AC50": "12.4 µM (active)"
  },
  {
    "molecule": "CC(C)c1cccc(C(C)C)c1N",
    "AC50": "inactive"
  },
  {
    "molecule": "Cc1c(O)cccc1O",
    "AC50": "inactive"
  },
  {
    "molecule": "CC(C)CCCCCOC(=O)CS",
    "AC50": "inactive"
  },
  {
    "molecule": "Nc1cccc(N)n1",
    "AC50": "inactive"
  },
  {
    "molecule": "CC1(C)CC(O)CC(C)(C)N1[O]",
    "AC50": "inactive"
  },
  {
    "molecule": "CC=C(C)C(C)=O",
    "AC50": "inactive"
  },
  {
    "molecule": "O=C(O)C(F)(F)C(F)(F)C(F)(F)C(F)(F)C(=O)O",
    "AC50": "inactive"
  },
  {
    "molecule": "CCCCCC1=CCCC1=O",
    "AC50": "inactive"
  },
  {
    "molecule": "CCNc1nc(NC(C)(C)C)nc(OC)n1",
    "AC50": "inactive"
  },
  {
    "molecule": "CC(c1cc(C(C)(C)C)cc(C(C)(C)C)c1O)c1cc(C(C)(C)C)cc(C(C)(C)C)c1O",
    "AC50": "inactive"
  },
  {
    "molecule": "C[N+](C)(C)CCCNS(=O)(=O)C(F)(F)C(F)(F)C(F)(F)C(F)(F)C(F)(F)C(F)(F)C(F)(F)C(F)(F)F",
    "AC50": "inactive"
  },
  {
    "molecule": "O=C(Cl)c1c(Cl)c(Cl)c(C(=O)Cl)c(Cl)c1Cl",
    "AC50": "inactive"
  },
  {
    "molecule": "O=C1CCCCCCCCCCC1",
    "AC50": "inactive"
  },
  {
    "molecule": "Oc1ccc(/C=C/c2cc(O)cc(O)c2)cc1",
    "AC50": "inactive"
  },
  {
    "molecule": "C=CC(=O)OCCCCCCOC(=O)C=C",
    "AC50": "9.84 µM (active)"
  },
  {
    "molecule": "C=CC(=O)NCOCCCC",
    "AC50": "inactive"
  },
  {
    "molecule": "CCCCCCCCCCCC(=O)N(C)CC(=O)O",
    "AC50": "inactive"
  },
  {
    "molecule": "CC(CCC(=O)O)(c1ccc(O)cc1)c1ccc(O)cc1",
    "AC50": "inactive"
  }
]
